# Tested on: MDA-MB-468
# ASSAY_NAME: Antiproliferative activity against human MDA-MB-468 cells assessed as cell viability incubated for 48 hrs measured after additional incubation with MTT
# Format: functional, cell-based
# PARTICULARS: MDA-MB-468, 48 h
Decision: IC50 beneath 9 µM gives T; IC50 meeting or exceeding 9 µM gives F.

C[C@H]1COC2=C1C(=O)C(=O)c1c2ccc2c1CCCC2(C)C	F
COC(=O)CCN1CCc2c(oc3c2C(=O)C(=O)c2ccccc2-3)C1	T
CN(C)c1ccc(C(=O)N2CCc3c(oc4c3C(=O)C(=O)c3ccccc3-4)C2)cc1	F

Q: IC50 strictly < 9 µM for this compound? COc1ccc(C(=O)N2CCc3c(oc4c3C(=O)C(=O)c3ccccc3-4)C2)cc1
Ans: F

* * *

Below, each entry is listed alongside its reported IC50.
# System: MDA-MB-468
# ASSAY_NAME: Antiproliferative activity against human MDA-MB-468 cells assessed as cell viability incubated for 48 hrs measured after additional incubation with MTT
# Assay type: functional, cell-based
# PARTICULARS: MDA-MB-468, 48 h
Respond with the bare value in µM.

The cases that follow already have their IC50 on record.
CNC(=O)CCCN1CCc2c(oc3c2C(=O)C(=O)c2ccccc2-3)C1	9.45
COC(=O)[C@H](Cc1ccc(O)cc1)N1CCc2c(oc3c2C(=O)C(=O)c2ccccc2-3)C1	14.3
C[C@@H](CO)N1CCc2c(oc3c2C(=O)C(=O)c2ccccc2-3)C1	5.42
COC(=O)CCCN1CCc2c(oc3c2C(=O)C(=O)c2ccccc2-3)C1	9.12
CN(C)C(=O)N1CCc2c(oc3c2C(=O)C(=O)c2ccccc2-3)C1	2.35

Q: Please report the recorded IC50 for Cc1ccc(C(=O)N2CCc3c(oc4c3C(=O)C(=O)c3ccccc3-4)C2)cc1 .
Ans: 16.9

Q: Try this molecule too: CC(C)C[C@@H](CO)N1CCc2c(oc3c2C(=O)C(=O)c2ccccc2-3)C1
Ans: 7.54

Q: Try this molecule too: CNC(=O)CCN1CCc2c(oc3c2C(=O)C(=O)c2ccccc2-3)C1
Ans: 3.6

Q: Try this molecule too: CC(=O)N1CCc2c(oc3c2C(=O)C(=O)c2ccccc2-3)C1
Ans: 3.89

* * *

# Tested on: MDA-MB-468
# ASSAY_NAME: Antiproliferative activity against human MDA-MB-468 cells assessed as cell viability incubated for 48 hrs measured after additional incubation with MTT
# Type: functional, cell-based
# PARTICULARS: MDA-MB-468, 48 h
MEASURE: pIC50
API: returns pIC50 as number; meaning -log10 of concentration in mol/L.

The cases that follow already have their pIC50 on record.
O=C1C(=O)c2c(oc3c2CCN(CCO)C3)-c2ccccc21	5.80
O=C1C(=O)c2c(oc3c2CCN(C(=O)c2cccnc2)C3)-c2ccccc21	5.23
O=C1C(=O)c2c(oc3c2CCN([C@H](CO)Cc2ccc(O)cc2)C3)-c2ccccc21	4.89
O=C1C(=O)c2c(oc3c2CCN(CCCCO)C3)-c2ccccc21	5.02
O=C1C(=O)c2c(oc3c2CCN(CCCO)C3)-c2ccccc21	5.63

Q: Test system MDA-MB-468; read-out pIC50; what value for COC(=O)CN1CCc2c(oc3c2C(=O)C(=O)c2ccccc2-3)C1 ?
Ans: 5.62

Q: Try this molecule too: CNC(=O)[C@H](Cc1ccccc1)N1CCc2c(oc3c2C(=O)C(=O)c2ccccc2-3)C1
Ans: 5.09

Q: Try this molecule too: O=C1C(=O)c2c(oc3c2CCN(C(=O)c2ccc(Cl)cc2)C3)-c2ccccc21
Ans: 4.97

Q: Try this molecule too: CNC(=O)[C@H](C)N1CCc2c(oc3c2C(=O)C(=O)c2ccccc2-3)C1
Ans: 5.19

Q: Try this molecule too: O=C1C(=O)c2c(oc3c2CCN(C(=O)c2cccs2)C3)-c2ccccc21
Ans: 4.89

Q: Try this molecule too: N#Cc1ccc(C(=O)N2CCc3c(oc4c3C(=O)C(=O)c3ccccc3-4)C2)cc1
Ans: 4.90

Q: Try this molecule too: O=C1C(=O)c2c(oc3c2CCN(C(=O)N2CCOCC2)C3)-c2ccccc21
Ans: 5.27

Q: Try this molecule too: COC(=O)CC[C@@H](C(=O)OC)N1CCc2c(oc3c2C(=O)C(=O)c2ccccc2-3)C1
Ans: 4.91

Q: Try this molecule too: O=C1C(=O)c2c(oc3c2CCN(C(=O)c2ccccc2)C3)-c2ccccc21
Ans: 5.16

Q: Try this molecule too: CNC(=O)[C@H](Cc1ccc(O)cc1)N1CCc2c(oc3c2C(=O)C(=O)c2ccccc2-3)C1
Ans: 4.98

Q: Try this molecule too: CN1CCN(C(=O)N2CCc3c(oc4c3C(=O)C(=O)c3ccccc3-4)C2)CC1
Ans: 5.23
